Source: ChEMBL document CHEMBL1135348

- Test system: SW480
- Assay Procedure: Concentration required for 50% inhibition of growth in human colon adenocarcinoma (SW-480) cell line.
- Format: functional, cell-based
Value Type: IC50 (µM)

Which IC50 value belongs to CC1=C(SC(C)C(C)O)C(=O)c2ccccc2C1=O (stereo unspecified) ?
5.53

Which IC50 value belongs to "CC1=C(SCCO)C(=O)c2ccccc2C1=O" ?
5.14

Which IC50 value belongs to "CC1=C(SCCCO)C(=O)c2ccccc2C1=O" ?
4.85

Which IC50 value belongs to CC1=C(SCC(C)O)C(=O)c2ccccc2C1=O (racemic) ?
5.19

Which IC50 value belongs to "CC1=C(SCCCCO)C(=O)c2ccccc2C1=O" ?
4.51

* * *

- Test system: MCF7
- Assay Procedure: Concentration required for 50% inhibition of growth in mammary gland breast adenocarcinoma (MCF-7) cell line was determined
- Assay type: functional, cell-based
- Measurement Parameters: Homo sapiens
pIC50: −log10 of the molar value.
Value Type: pIC50

Some solved entries appear below for comparison.
Which pIC50 value belongs to "CC1=C(SCCO)C(=O)c2ccccc2C1=O" ?
5.28

Which pIC50 value belongs to "CC1=C(SCCCCO)C(=O)c2ccccc2C1=O" ?
5.24

Which pIC50 value belongs to "CC1=C(SCCCO)C(=O)c2ccccc2C1=O" ?
5.29

A: CC1=C(SCCCCCCO)C(=O)c2ccccc2C1=O
B: CC1=C(SCC(C)O)C(=O)c2ccccc2C1=O (racemic)
Of A and B , whose reported pIC50 is the larger number? Answer = label.
B

* * *

- Tested on: MES-SA
- Assay Procedure: Concentration required for 50% inhibition of growth in human uterine sarcoma (MES-SA) cell line was determined
- Assay type: functional, cell-based
pIC50: −log10 of the molar value.
Value Type: pIC50

Which pIC50 value belongs to "CC1=C(SCCCCO)C(=O)c2ccccc2C1=O" ?
< 5.00

Which pIC50 value belongs to CC1=C(SCC(C)O)C(=O)c2ccccc2C1=O (racemic) ?
5.15

Which pIC50 value belongs to "CC1=C(SCCCCCCO)C(=O)c2ccccc2C1=O" ?
< 5.00

Which pIC50 value belongs to "CC1=C(SCCO)C(=O)c2ccccc2C1=O" ?
< 5.00

Which pIC50 value belongs to "CC1=C(SCCCO)C(=O)c2ccccc2C1=O" ?
< 5.00

***
Which pIC50 value belongs to CC1=C(SC(C)C(C)O)C(=O)c2ccccc2C1=O (stereo unspecified) ?
< 5.00

* * *

- Assay Procedure: Concentration required for 50% inhibition of growth in human multidrug resistance uterine sarcoma (MES-SA/Dx5 ) cell line was determined
- Assay type: functional, cell-based
This listing pairs compounds with measured IC50.

Some solved entries appear below for comparison.
Which IC50 value belongs to "CC1=C(SCCCCCCO)C(=O)c2ccccc2C1=O" ?
> 10 µM

Which IC50 value belongs to CC1=C(SCC(C)O)C(=O)c2ccccc2C1=O (racemic) ?
5.1 µM

Which IC50 value belongs to "CC1=C(SCCO)C(=O)c2ccccc2C1=O" ?
> 10 µM

Which IC50 value belongs to "CC1=C(SCCCO)C(=O)c2ccccc2C1=O" ?
> 10 µM

Which IC50 value belongs to "CC1=C(SCCCCO)C(=O)c2ccccc2C1=O" ?
> 10 µM

Moving on to the next compound.
Which IC50 value belongs to CC1=C(SC(C)C(C)O)C(=O)c2ccccc2C1=O (stereo unspecified) ?
> 10 µM
